Would you kindly list melting point for each of these compounds?

Quick check: melting point of O=c1c2ccccc2nc(Nc2ccccc2)n1C1CC1 ?
141 to 144 °C

Quick check: melting point of COc1ccc(-n2c(Nc3ccccc3)nc3ccccc3c2=O)cc1 ?
256 to 259 °C

Quick check: melting point of O=C1c2ccccc2NC(c2ccc(OCc3cn(Cc4ccc(F)cc4)nn3)cc2)N1Cc1ccccc1 (stereo not drawn) [Compound 10b] ?
83 to 86 °C

----------
Would you kindly list melting point for each of these molecules?

Quick check: melting point of CC(C)n1c(Nc2ccccc2)nc2ccccc2c1=O [Compound 5e] ?
143 to 146 °C

Quick check: melting point of O=c1c2ccccc2nc(Nc2ccccc2)n1CCl [Compound 5b] ?
194 to 197 °C

Quick check: melting point of O=C1c2ccccc2NC(c2ccc(OCc3cn(Cc4ccccc4)nn3)cc2)N1Cc1ccccc1 (centres unmarked) [Compound 10a] ?
65 to 68 °C

Quick check: melting point of Cc1ccccc1Nc1nc2ccccc2c(=O)n1-c1ccccc1 [Compound 5a] ?
254 to 258 °C

Quick check: melting point of O=C1c2ccccc2NC(c2ccc(OCc3cn(Cc4ccc(F)cc4)nn3)cc2)N1Cc1ccc(F)cc1 (centres unmarked) [Compound 10f] ?
69 to 72 °C

Quick check: melting point of Cc1ccccc1Cn1cc(COc2ccc(C3Nc4ccccc4C(=O)N3Cc3ccc(F)cc3)cc2)nn1 (centres unmarked) [Compound 10e] ?
63 to 65 °C

Quick check: melting point of O=C1c2ccccc2NC(c2ccc(OCc3cn(Cc4ccc(Br)cc4)nn3)cc2)N1Cc1ccccc1 (centres unmarked) [Compound 10d] ?
93 to 95 °C

Quick check: melting point of O=C1c2ccccc2NC(c2ccc(OCc3cn(Cc4ccc(Cl)cc4)nn3)cc2)N1Cc1ccccc1 (centres unmarked) [Compound 10c] ?
84 to 87 °C

----------
System: human colon cancer HCT-116 cell line
ASSAY METHOD TEXT: MTT cytotoxicity assay, HCT-116
Assay type: cell-based
REPORTED CONDITIONS: HCT-116, 48 h, read-out: IC50 (µM) HCT-116 48 h
OBSERVED PROPERTY: IC50 (µM)
Note: unit µM is implicit; provide only the numeric part.

Quick check: IC50 of CC(C)n1c(Nc2ccccc2)nc2ccccc2c1=O ?
88.7

Quick check: IC50 of COc1ccc(-n2c(Nc3ccccc3)nc3ccccc3c2=O)cc1 ?
39.2

Quick check: IC50 of O=c1c2ccccc2nc(Nc2ccccc2)n1C1CC1 ?
59.2

Quick check: IC50 of O=C1c2ccccc2NC(c2ccc(OCc3cn(Cc4ccc(F)cc4)nn3)cc2)N1Cc1ccc(F)cc1 (stereo not drawn) [Compound 10f] ?
40.4

Quick check: IC50 of O=C1c2ccccc2NC(c2ccc(OCc3cn(Cc4ccccc4)nn3)cc2)N1Cc1ccccc1 (stereo not drawn) [Compound 10a] ?
88.8

Quick check: IC50 of COc1cccc2c1C(=O)c1c(O)c3c(c(O)c1C2=O)C[C@@](O)(C(=O)CO)C[C@@H]3O[C@H]1C[C@H](N)[C@H](O)[C@H](C)O1 [DOX, doxorubicin, reference compound] ?
1.66

Quick check: IC50 of O=C1c2ccccc2NC(c2ccc(OCc3cn(Cc4ccc(Cl)cc4)nn3)cc2)N1Cc1ccccc1 (stereo not drawn) [Compound 10c] ?
120

Quick check: IC50 of O=c1c2ccccc2nc(Nc2ccccc2)n1CCl ?
59.3

Quick check: IC50 of Cc1ccccc1Nc1nc2ccccc2c(=O)n1-c1ccccc1 ?
7.15

Quick check: IC50 of O=C1c2ccccc2NC(c2ccc(OCc3cn(Cc4ccc(Br)cc4)nn3)cc2)N1Cc1ccccc1 (stereo not drawn) [Compound 10d] ?
251

Quick check: IC50 of Cc1ccccc1Cn1cc(COc2ccc(C3Nc4ccccc4C(=O)N3Cc3ccc(F)cc3)cc2)nn1 (stereo not drawn) [Compound 10e] ?
48.2

Quick check: IC50 of O=C1c2ccccc2NC(c2ccc(OCc3cn(Cc4ccc(F)cc4)nn3)cc2)N1Cc1ccccc1 (stereo not drawn) [Compound 10b] ?
184
